From: patent US20260234660A1

Consider the following molecules; for each one, report its kd.
Tgt: T1, human CACNG1 nanodisc (Homo sapiens, UniProt Q06432)
T1 construct: made in house
Method: Biacore binding kinetics of anti-CACNG1 monoclonal antibodies to human CACNG1 nanodisc, antigen capture format
Test conditions: 25° C., 1:1 binding model
Don't forget the unit after the value.

**Query** Given the molecule REGN10716: anti-hCACNG1 antibody, HCVR/LCVR SEQ ID NOs: 50/58, wildtype hIgG1 (antibody, V domains shown, hIgG1) VH: QVQLQESGPGLVKPSETLSLTCTVSGDSINNYYWTWLRQPPGKGLEWIGYIYYSGSANYNPSLKSRVTISVDTSKNQFSLKLNSVTAADTAVYYCARGAVKYFRHWGQGTLVTVSS VL: EIVLTQSPGTLSLSPGERATLSCRASQTINHNNLAWYQQRPGQAPRLLIYGASNRATAIPDRFSGSGSGTDFTLTISRLEPEDFEVYSCQQYGSLPLTFGGGTKVEIK , what is its reported kd?
**Result** 8.36e-05 s⁻¹

**Query** Try REGN10715: anti-hCACNG1 antibody, HCVR/LCVR SEQ ID NOs: 18/26, wildtype hIgG1 (antibody, V domains shown, hIgG1) VH: QVQLQQWGAGLLKPSATLSRTCAVYGGSFSGYYWNWIRQSPGKGLEWIGEILHSGRTNYNPSLKSRVTISVDTSKNQFSLKLTSVTAADTAVYYCAGRIAARHGWFDPWGQGTLVTVSS VL: DIQMTQSPSSVSTSVGDRVTISCRASQDIRKWLAWYQQKPGKAPKLLIYATSSLQSGVPSRFSGSGSGTDFTLTISSLQPEDFATYFCQQANSFPFTFGQGTKLEIK next.
**Result** 0.000301 s⁻¹

**Query** Try this molecule next: REGN9909: anti-hCACNG1 antibody, HCVR/LCVR SEQ ID NOs: 146/154 (antibody, V domains shown) VH: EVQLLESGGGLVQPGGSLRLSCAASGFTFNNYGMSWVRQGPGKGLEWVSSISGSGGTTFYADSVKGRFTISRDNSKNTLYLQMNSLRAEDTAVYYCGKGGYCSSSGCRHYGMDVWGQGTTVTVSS VL: QSVLTQPPSASGTPGQRVTISCSGSSSNIGNNYIYWYQRLPGTTPKLLIYRNNQRPSGVPDRFSGSKSGTSASLAISGLRSEDEADYYCAAWDDTLSGYVFGTGTKVTVL
**Result** 0.00137 s⁻¹

**Query** Moving on to the next molecule: REGN10717: anti-hCACNG1 antibody, HCVR/LCVR SEQ ID NOs: 34/42, wildtype hIgG1 (antibody, V domains shown, hIgG1) VH: QVQLVESGGGVVQPGRSLRLSCAASGFTFSTYGMHWVRQAPGKGLEWVAVIWHDGSDKYYVDSVKGRFSIARDNSKNTLYLQMNSLRVEDTGIYYCARRGIRGTVFDHWGLGTLVTVSS VL: DIQMTQSPSTLSASVGDRVTLTCRASQSISNKLAWYQQKPGKAPNLLIYKASNLESGVPSRFSGSGSGTEFTLTISSLQPDDFATYYCQQYNSYSWTFGQGTKVEIK
**Result** 0.0304 s⁻¹

**Query** What do you have for REGN10713: anti-hCACNG1 antibody, HCVR/LCVR SEQ ID NOs: 162/170, wildtype hIgG1 (antibody, V domains shown, hIgG1) VH: EVQLVESGGNLVQPGGSLRLSCAASGFTFTSHAMNWVRQAPGKGLEWVSVITGRGFDTHYADSVKGRFTISRDISKNTLYLQMNSLRAEDTAVYYCAKGLYDSGNYYIDYWGQGTLVTVSS VL: QSVLTQPPSVSAAPGQKVTISCSGSSSNIGNNYVSWYQQLPGTAPKLLIYDNNKRPSGIPDRFSGSKSGTSATLGITGLQTGDEADYYCGTWDLSLSFNWVFGGGTKLTVL ?
**Result** 4.72e-05 s⁻¹
